Tested on: HEK-293T
ASSAY_PROCEDURE: Inhibition of influenza A virus HA-tagged polymerase acidic protien transfected in HEK293T cells after 24 hrs by ELISA
Type: cell-based
Active and inactive are the calls of the source. No cut-off for these calls is given here.
QUANTITY_KIND: inhibition

>>> observed_value("O=[N+]([O-])c1ccc(SCc2ccc(F)cc2)c2nonc12")
"Active"
>>> observed_value("COc1cccc(Oc2ccc([N+](=O)[O-])c3nonc23)c1")
"Active"
>>> observed_value("O=[N+]([O-])c1ccc(Nc2ccc(O)cc2)c2nonc12")
"Active"
>>> observed_value("O=[N+]([O-])c1ccc(Sc2ccc(Br)cc2)c2nonc12")
"Active"
>>> observed_value("O=[N+]([O-])c1ccc(Sc2ccc(Cl)cc2)c2nonc12")
"Active"
>>> observed_value("COc1ccc(Sc2ccc([N+](=O)[O-])c3nonc23)cc1")
"Active"
>>> observed_value("O=[N+]([O-])c1ccc(Sc2ccc([N+](=O)[O-])c3nonc23)cc1")
"Active"
>>> observed_value("COc1ccc(CSc2ccc(NCc3ccccc3)c3nonc23)cc1")
"Active"
>>> observed_value("O=[N+]([O-])c1ccc(Nc2ccccc2S)c2nonc12")
"Active"
>>> observed_value("O=[N+]([O-])c1ccc(SCc2ccc(Cl)cc2)c2nonc12")
"Active"
>>> observed_value("COc1ccc(CSc2ccc(Cl)c3nonc23)cc1")
"Active"

====

Tested on: HEK-293T
ASSAY_PROCEDURE: Inhibition of influenza A virus HA-tagged polymerase acidic protien transfected in HEK293T cells after 24 hrs by ELISA
Assay type: cell-based
Calls of active or inactive are those of the source. The rule behind the calls is not given here.
QUANTITY_KIND: inhibition

>>> observed_value("O=[N+]([O-])c1ccc(Sc2ccccc2)c2nonc12")
"Active"
>>> observed_value("N#Cc1ccc(Oc2ccc([N+](=O)[O-])c3nonc23)cc1")
"Active"
>>> observed_value("Nc1cccc(Sc2ccc([N+](=O)[O-])c3nonc23)c1")
"Active"

====

Test system: MDCK
ASSAY_PROCEDURE: Cytotoxicity against MDCK cells
Assay type: cell-based, Canis lupus familiaris
COND: dog
QUANTITY_KIND: Cytotoxic concentration (µM)

>>> observed_value("O=[N+]([O-])c1ccc(Sc2ccc(F)cc2)c2nonc12")
40
>>> observed_value("O=[N+]([O-])c1ccc(Oc2ccc(CCO)cc2)c2nonc12")
20
>>> observed_value("O=[N+]([O-])c1cccc(CSc2ccc([N+](=O)[O-])c3nonc23)c1")
20
>>> observed_value("COc1ccc(Oc2ccc([N+](=O)[O-])c3nonc23)cc1")
60
>>> observed_value("COc1ccc(Sc2ccc([N+](=O)[O-])c3nonc23)cc1")
40
>>> observed_value("O=[N+]([O-])c1ccc(Sc2ccc(Br)cc2)c2nonc12")
40
>>> observed_value("O=[N+]([O-])c1ccc(Sc2ccc(Cl)cc2)c2nonc12")
40
>>> observed_value("O=[N+]([O-])c1ccc(Sc2ccccc2Br)c2nonc12")
40
>>> observed_value("Nc1cccc(Sc2ccc([N+](=O)[O-])c3nonc23)c1")
40
>>> observed_value("O=[N+]([O-])c1ccc(Sc2ccc([N+](=O)[O-])c3nonc23)cc1")
40
>>> observed_value("O=[N+]([O-])c1ccc(SCc2ccc(F)cc2)c2nonc12")
20
